Hi there, I'd appreciate the recorded CC50 at 72 h for every entry that follows.
assay: Cardiac toxicity in 3D cardiac spheroids (CellTiter-Glo, 72 h); format: cell-based, Swiss webster mice; details: Swiss webster, mouse, 3D cardiac microtissue (cardiac spheroids), ATP levels, read-out: Toxicity CC50 3D Culture

For the 3 compounds below, give their CC50 at 72 h values.
1. O=C(Cn1ccnc1[N+](=O)[O-])NCc1ccccc1 [Bz, benznidazole, reference compound]
2. Nc1nnc(-c2cnn(-c3ccc(Cl)cc3Cl)c2)s1
3. Nc1nnc(-c2cnn(-c3ccc([N+](=O)[O-])cc3)c2N)s1

["> 500 µM", "> 500 µM", "> 500 µM"]
